# EXPERIMENTAL DETAILS: Cmax in Wistar Han rat plasma at 0.1 umol/kg, administered as dry powder inhalation by LC-MS/MS analysis
# Assay type: ADME
# Design: dose 0.1 umol/kg, route respiratory (INHALATION)
# COND: inhaled or intranasal
ENDPOINT NAME: Cmax (nM)
Answer in nM, number only, no unit symbol.

CCC(=O)O[C@]1(C(=O)SCF)[C@H](C)C[C@H]2[C@@H]3C[C@H](F)C4=CC(=O)C=C[C@]4(C)[C@@]3(F)[C@@H](O)C[C@@]21C [FLUTICASONE PROPIONATE] = 24
COc1cccc([C@@H](Oc2ccc3c(cnn3-c3ccc(F)cc3)c2)[C@H](C)NC(=O)C(F)(F)F)c1 = 122

// moving on: another record for Cmax
Look up Cmax for this compound: `C[C@H](NC(=O)C(C)(F)F)[C@H](Oc1ccc2c(cnn2-c2cccc(C(=O)NCc3cccnc3)c2)c1)c1ccc2c(c1)OCOC2`
12

Source: ChEMBL document CHEMBL4028861
